target: PI3Kα H1047R (T47D cells) (Homo sapiens, UniProt P42336, H1047R); construct: endogenous in cells; host or cells: T47D cells; experiment: PI3Kα cellular assay: pAKT HTRF in T47D cells after EGF stimulation; type: cell-based; settings: selectivity of T47D (H1047R) over SKBR3 (WT) pAKT IC50
Sequence (P42336 whole entry H1047R): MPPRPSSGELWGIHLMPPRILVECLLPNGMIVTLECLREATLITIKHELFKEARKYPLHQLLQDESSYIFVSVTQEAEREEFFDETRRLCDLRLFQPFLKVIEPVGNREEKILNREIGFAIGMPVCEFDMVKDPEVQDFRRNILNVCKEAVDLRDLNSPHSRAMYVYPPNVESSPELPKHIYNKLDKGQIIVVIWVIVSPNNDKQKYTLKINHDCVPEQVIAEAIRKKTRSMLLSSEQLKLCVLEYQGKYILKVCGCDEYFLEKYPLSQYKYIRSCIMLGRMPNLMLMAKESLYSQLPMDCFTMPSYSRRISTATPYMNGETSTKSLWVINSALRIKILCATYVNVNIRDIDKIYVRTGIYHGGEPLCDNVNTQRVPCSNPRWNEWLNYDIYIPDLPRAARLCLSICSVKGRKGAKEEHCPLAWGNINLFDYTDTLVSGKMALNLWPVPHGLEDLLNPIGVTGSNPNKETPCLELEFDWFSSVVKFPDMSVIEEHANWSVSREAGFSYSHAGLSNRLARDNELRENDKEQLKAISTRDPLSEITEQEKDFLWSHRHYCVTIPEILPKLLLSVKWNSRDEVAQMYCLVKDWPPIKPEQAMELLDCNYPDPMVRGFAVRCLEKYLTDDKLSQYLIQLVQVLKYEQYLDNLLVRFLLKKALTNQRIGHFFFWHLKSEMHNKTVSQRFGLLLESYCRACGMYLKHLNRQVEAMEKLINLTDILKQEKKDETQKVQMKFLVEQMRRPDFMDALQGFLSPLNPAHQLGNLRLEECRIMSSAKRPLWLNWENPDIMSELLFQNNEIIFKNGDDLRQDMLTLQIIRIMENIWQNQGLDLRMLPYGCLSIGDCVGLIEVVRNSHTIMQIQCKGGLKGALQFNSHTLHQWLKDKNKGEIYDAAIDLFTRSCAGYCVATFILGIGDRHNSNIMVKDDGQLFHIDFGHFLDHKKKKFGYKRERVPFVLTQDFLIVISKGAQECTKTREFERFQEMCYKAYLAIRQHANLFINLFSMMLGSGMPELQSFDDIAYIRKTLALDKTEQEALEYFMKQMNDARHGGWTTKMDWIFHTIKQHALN
Sequence (P27986 whole entry partner): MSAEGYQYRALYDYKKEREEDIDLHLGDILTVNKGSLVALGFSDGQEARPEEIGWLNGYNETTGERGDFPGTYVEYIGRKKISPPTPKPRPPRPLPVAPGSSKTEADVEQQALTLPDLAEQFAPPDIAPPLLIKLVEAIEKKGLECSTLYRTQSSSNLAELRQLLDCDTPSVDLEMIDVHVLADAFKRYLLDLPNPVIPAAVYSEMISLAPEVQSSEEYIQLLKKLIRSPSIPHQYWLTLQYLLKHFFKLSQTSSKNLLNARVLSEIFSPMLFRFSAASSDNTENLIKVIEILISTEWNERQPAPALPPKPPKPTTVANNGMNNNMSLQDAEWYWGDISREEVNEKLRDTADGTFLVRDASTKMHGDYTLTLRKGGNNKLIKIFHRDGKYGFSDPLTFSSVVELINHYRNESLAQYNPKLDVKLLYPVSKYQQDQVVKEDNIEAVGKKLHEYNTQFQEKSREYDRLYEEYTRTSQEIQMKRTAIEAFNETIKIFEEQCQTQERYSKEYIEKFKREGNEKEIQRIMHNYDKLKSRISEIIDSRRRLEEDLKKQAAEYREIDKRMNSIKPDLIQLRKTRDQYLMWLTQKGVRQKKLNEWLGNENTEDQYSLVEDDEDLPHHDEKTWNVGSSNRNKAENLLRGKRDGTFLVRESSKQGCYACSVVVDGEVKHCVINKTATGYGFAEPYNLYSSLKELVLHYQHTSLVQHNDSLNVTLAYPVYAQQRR
readout_type: T47D pAKT S473 HTRF IC50 (H1047R): T47D (H1047R) selectivity over SKBR3 (WT)

# compound, assay_value
data = [
    ("Cc1cc([C@H](C)Nc2ccccc2S(N)(=O)=O)c2nc(-c3ccc(F)c(C#N)c3)c(C)c(=O)n2c1 [Compound 1032]", "C (C denotes ≤5-fold)"),
    ("Cc1cc([C@H](C)Nc2cccc3c2OCC(=O)N3)c2nc(N3CCOCC3)cc(=O)n2c1 [Compound 686]", "C (C denotes ≤5-fold)"),
]

Provenance of the data: patent US20260132129A1
